Measured pIC50 (FF) of individual entries
# SUBJECT_OF_TEST: RORγ (UniProt P51449)
# Construct: hRORg-LBD|aa259-518|NP_005051.2; hRORgt|aa1-497|NP_001001523 (RORg, t isoform, 497aa); mRORg-LBD|aa264-516|NP_035411
# Sequence (P51449 1-518): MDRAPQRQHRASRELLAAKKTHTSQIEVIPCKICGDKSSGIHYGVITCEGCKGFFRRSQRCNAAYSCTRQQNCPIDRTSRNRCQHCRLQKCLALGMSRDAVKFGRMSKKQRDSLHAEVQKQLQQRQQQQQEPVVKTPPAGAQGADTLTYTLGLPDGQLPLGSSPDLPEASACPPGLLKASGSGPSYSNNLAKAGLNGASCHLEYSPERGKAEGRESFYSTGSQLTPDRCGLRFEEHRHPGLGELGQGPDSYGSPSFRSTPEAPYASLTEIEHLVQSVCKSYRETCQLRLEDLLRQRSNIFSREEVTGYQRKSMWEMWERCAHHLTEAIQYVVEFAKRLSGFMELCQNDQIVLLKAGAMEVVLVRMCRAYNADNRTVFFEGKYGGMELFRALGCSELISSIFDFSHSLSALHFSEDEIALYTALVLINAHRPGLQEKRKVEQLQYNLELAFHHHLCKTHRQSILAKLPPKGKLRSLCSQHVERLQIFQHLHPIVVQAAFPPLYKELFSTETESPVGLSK
# Type: cell-based
# PARTICULARS: firefly (FF) luciferase, 293T cells, 16 h

{"COMPOUND": "Cn1c(C(=O)NC23CCC(C(=O)O)(CC2)CC3)cc(-c2cc(C(C)(C)C)cc(C3(C)CC3)c2)c1CC1CCCCC1 [8/14]", "pIC50 (FF)": 7.4}
{"COMPOUND": "CC(C)(C)c1cc(-c2[nH]c(C(=O)N[C@H]3C[C@H](C(=O)O)C3)cc2CC2CCCCC2)cc(C2(C)CC2)c1 [Example 12/2]", "pIC50 (FF)": 6.6}
{"COMPOUND": "CC(C)(C)NS(=O)(=O)c1ccc(-c2c(F)c(C(=O)NCCC(C)(C)C(=O)O)nn2CC2CCCCC2)cc1C(F)(F)F [Example 109]", "pIC50 (FF)": 6.7}
{"COMPOUND": "Cc1c(C(=O)NCCC(C)(C)C(=O)O)cn(-c2ccc(S(=O)(=O)NC(C)(C)C)c(C(F)(F)F)c2)c1CC1CCCCC1 [Example 4]", "pIC50 (FF)": 7.7}
{"COMPOUND": "Cc1c(C(=O)N[C@H]2C[C@H](C(=O)O)C2)cn(-c2cc(C(C)(C)C)cc(C3(C)CC3)c2)c1SC1CCCCC1 [Example 21]", "pIC50 (FF)": 8.0}
{"COMPOUND": "Cc1c(C(=O)NC2CCOCC2)cc(-c2ccc(S(=O)(=O)NC(C)(C)C)c(C(C)(C)C)c2)n1CC(C)(C)C [Example 302/1]", "pIC50 (FF)": 6.3}

----------
Measured pIC50 (REN) of individual entries
# SUBJECT_OF_TEST: RORγ (UniProt P51449)
# Construct: hRORg-LBD|aa259-518|NP_005051.2; hRORgt|aa1-497|NP_001001523 (RORg, t isoform, 497aa); mRORg-LBD|aa264-516|NP_035411
# Sequence (P51449 1-518): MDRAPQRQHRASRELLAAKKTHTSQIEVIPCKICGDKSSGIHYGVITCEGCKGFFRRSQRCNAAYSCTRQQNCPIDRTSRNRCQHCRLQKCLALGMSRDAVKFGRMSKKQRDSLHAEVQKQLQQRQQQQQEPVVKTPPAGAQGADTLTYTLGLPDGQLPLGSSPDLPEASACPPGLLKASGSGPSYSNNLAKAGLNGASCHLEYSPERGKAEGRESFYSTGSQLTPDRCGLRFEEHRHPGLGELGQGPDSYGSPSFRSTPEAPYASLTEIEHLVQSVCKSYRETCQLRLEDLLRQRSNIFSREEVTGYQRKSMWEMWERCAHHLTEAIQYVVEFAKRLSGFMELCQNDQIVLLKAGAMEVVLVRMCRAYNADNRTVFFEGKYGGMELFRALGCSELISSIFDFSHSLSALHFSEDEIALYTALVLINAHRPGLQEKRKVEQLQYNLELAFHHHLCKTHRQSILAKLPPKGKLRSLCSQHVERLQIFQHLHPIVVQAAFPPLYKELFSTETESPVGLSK
# Format: cell-based
# PARTICULARS: renilla normalised (RENnorm) luciferase, 293T cells, 16 h
RECORDED_ENDPOINT: pIC50 (REN)

{"MOLECULE": "COC(c1c(C)c(C(=O)NC2CCOCC2)cn1-c1cc(C(C)(C)C)cc(C2(C)CC2)c1)C1CCCCC1 (stereo not shown)", "SUBJECT_OF_TEST": "RORγ (UniProt P51449)", "EXPERIMENTAL_VALUE": 6.3}
{"MOLECULE": "Cc1c(C(=O)N[C@H]2C[C@H](C(=O)O)C2)cn(-c2cc(C(C)(C)C)cc(C3(C)CC3)c2)c1S(=O)(=O)C1CCCCC1", "SUBJECT_OF_TEST": "RORγ (UniProt P51449)", "EXPERIMENTAL_VALUE": 6.5}
{"MOLECULE": "CC(C)(C)c1cc(-n2nc(C(N)=O)c(Cl)c2CC2CCCCC2)cc(C(C)(C)C)n1", "SUBJECT_OF_TEST": "RORγ (UniProt P51449)", "EXPERIMENTAL_VALUE": 6.7}
{"MOLECULE": "CC(C)(C)NS(=O)(=O)c1ccc(-n2nc(C(=O)NC3CCS(=O)(=O)CC3)c(Cl)c2CC2CCCCC2)c2ccccc12", "SUBJECT_OF_TEST": "RORγ (UniProt P51449)", "EXPERIMENTAL_VALUE": 7.0}
